Assignment: determine reported IC50 for the given molecules.
biological target: rat plasma DPP-IV (Rattus norvegicus); construct: DPP-IV activity in human and rat plasma; experiment: rat plasma DPP-IV inhibition assay; conditions: H-Glycine-Proline-AMC substrate, pH 7.8, room temperature, 20 min
Sequence (P14740 37-767 limits assumed): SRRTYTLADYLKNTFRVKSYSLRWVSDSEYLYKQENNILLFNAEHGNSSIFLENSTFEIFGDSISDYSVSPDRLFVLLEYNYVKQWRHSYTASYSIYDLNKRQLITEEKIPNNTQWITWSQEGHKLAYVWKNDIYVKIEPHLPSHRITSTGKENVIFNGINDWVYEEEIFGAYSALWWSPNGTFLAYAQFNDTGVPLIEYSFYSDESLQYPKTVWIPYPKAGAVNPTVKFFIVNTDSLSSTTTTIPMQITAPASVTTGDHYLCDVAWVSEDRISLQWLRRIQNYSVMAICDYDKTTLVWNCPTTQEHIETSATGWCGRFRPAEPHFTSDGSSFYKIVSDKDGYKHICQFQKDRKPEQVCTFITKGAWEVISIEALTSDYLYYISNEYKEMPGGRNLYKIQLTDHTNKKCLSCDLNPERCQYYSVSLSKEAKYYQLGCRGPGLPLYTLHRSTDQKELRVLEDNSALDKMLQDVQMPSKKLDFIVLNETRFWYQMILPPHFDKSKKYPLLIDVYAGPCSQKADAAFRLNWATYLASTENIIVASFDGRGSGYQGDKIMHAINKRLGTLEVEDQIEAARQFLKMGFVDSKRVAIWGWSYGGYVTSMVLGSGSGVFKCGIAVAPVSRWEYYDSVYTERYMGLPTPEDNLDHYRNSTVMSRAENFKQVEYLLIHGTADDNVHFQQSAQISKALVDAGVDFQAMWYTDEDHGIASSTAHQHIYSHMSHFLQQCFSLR
Counter-ions that a name gives are not always drawn.
Put your answer as a value accompanied by its unit after it.

# return recorded IC50 for entry N#C[C@@H]1CCCN1C(=O)CNCCC1=CCCCC1 [Ex. 27, monohydrochloride]
160 nM

# return recorded IC50 for entry N#C[C@@H]1CCCN1C(=O)CNCCCN1CCCC1=O [Ex. 14, monohydrochloride]
24 nM

# return recorded IC50 for entry N#C[C@@H]1CCCN1C(=O)CNCc1ccccc1Sc1ccccc1CO [Ex. 35, monohydrochloride]
340 nM

# return recorded IC50 for entry COc1cccc(CCNCC(=O)N2CCC[C@H]2C#N)c1 [Ex. 19, monohydrochloride]
50 nM

# return recorded IC50 for entry COc1ccccc1CCNCC(=O)N1CCC[C@H]1C#N [Ex. 36, monohydrochloride]
80 nM

# return recorded IC50 for entry C[C@H](NCC(=O)N1CCC[C@H]1C#N)[C@H](O)c1ccccc1 [Ex. 41]
50 nM

# return recorded IC50 for entry COc1cc(CCNCC(=O)N2CCC[C@H]2C#N)cc(OC)c1 [Ex. 46, monohydrochloride]
60 nM

# return recorded IC50 for entry COc1ccc(CCNCC(=O)N2CCC[C@H]2C#N)cc1 [Ex. 18, monohydrochloride]
70 nM
